testedSystem: Serine/threonine-protein kinase MRCK beta (Homo sapiens) (UniProt Q9Y5S2)
Sequence (Q9Y5S2 whole entry): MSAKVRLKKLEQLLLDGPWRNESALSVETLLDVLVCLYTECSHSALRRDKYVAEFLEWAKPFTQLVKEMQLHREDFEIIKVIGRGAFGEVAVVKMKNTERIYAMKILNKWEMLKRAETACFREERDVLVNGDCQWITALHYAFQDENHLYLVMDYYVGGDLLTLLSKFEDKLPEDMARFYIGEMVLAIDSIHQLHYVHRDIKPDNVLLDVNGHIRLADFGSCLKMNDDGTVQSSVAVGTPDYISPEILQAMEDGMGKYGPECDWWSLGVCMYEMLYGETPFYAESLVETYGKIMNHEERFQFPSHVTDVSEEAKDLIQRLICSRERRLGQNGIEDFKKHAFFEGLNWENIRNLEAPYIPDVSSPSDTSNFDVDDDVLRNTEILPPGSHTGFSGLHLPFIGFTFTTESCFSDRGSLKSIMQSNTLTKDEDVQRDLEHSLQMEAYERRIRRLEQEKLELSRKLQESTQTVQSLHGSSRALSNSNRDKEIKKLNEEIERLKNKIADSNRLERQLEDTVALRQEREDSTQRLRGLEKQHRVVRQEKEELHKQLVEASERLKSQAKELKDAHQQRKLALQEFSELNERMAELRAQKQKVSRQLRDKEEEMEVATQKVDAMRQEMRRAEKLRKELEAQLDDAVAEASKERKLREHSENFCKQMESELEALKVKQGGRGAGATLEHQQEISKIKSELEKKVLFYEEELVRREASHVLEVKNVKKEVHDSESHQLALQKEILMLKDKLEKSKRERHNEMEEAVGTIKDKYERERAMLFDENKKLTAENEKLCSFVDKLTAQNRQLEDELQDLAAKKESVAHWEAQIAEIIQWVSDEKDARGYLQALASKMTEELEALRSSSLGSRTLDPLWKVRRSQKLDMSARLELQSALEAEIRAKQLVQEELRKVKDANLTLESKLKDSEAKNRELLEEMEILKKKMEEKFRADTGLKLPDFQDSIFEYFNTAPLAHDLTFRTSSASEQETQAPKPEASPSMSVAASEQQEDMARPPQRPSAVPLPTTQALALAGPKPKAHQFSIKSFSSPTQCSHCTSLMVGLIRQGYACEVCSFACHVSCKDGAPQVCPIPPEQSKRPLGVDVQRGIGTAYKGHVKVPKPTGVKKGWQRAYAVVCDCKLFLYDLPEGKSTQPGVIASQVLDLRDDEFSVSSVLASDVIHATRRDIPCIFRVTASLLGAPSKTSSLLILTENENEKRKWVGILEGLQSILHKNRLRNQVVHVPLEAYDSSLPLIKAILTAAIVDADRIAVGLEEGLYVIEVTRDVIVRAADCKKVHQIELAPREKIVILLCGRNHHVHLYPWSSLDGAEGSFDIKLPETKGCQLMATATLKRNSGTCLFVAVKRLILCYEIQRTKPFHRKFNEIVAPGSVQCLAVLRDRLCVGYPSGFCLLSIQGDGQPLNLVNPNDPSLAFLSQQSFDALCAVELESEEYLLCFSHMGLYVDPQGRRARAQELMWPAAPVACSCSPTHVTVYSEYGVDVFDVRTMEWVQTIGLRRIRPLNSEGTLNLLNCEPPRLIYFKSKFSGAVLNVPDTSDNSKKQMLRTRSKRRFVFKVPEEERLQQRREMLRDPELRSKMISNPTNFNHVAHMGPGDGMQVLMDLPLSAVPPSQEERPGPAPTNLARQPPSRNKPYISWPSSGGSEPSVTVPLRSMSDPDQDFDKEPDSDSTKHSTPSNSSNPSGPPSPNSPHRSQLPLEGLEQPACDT
cond: at 10 µM
Lab note: compare residual activity with 90%, writing fulfilled if less and not fulfilled if equal or more.

COc1ccc(S(=O)(=O)N(CCO)c2ccccc2CN(C)C/C=C/c2ccc(Cl)cc2)cc1 fulfilled
c1ccc2c(-c3ccncc3)c[nH]c2c1 fulfilled
CC(C)n1cnc2/c(=N/c3cccc(Cl)c3)nc(NCCO)[nH]c21 fulfilled
Cc1nc2cc3nc(-c4cccs4)cnc3cc2n1C not fulfilled
COc1ccc(CNc2nc(N(CCO)CCO)nc3c2ncn3C(C)C)cc1 fulfilled
O=c1c2ccccc2[nH]c(=S)n1CCN1CCC(=C(c2ccc(F)cc2)c2ccc(F)cc2)CC1 fulfilled
COc1ccc(OC)c2c(=S)c3ccccc3[nH]c12 not fulfilled
COc1cc2ncc(-c3ccccc3)nc2cc1OC fulfilled
CNc1cc2c(Nc3cccc(Br)c3)ncnc2cn1 fulfilled
Cc1nc(-c2ccccc2)c(-c2ccncc2)o1 not fulfilled
